Species on record: Rattus norvegicus
ASSAY_PROTOCOL: Open TG-GATES - Regimen: Single
Format: toxicity, organism-based, Sprague-Dawley
Design: regimen Single, gender Male, age 6 weeks
MEASUREMENT_PARAMETERS: in vivo, po, 0 mg/kg, 3 h, tissue Liver, route gavage, dose level Control
PROPERTY_NAME: LIVER (g)
Numeric answer only, unit g assumed.

# SMILES_REPRESENTATION, LIVER / g
records = [
    ("CC(C)(S)[C@@H](N)C(=O)O", 9),
    ("Nc1nc(N)c2nc(-c3ccccc3)c(N)nc2n1", 9.3),
    ("O=C(N[C@H](CO)[C@H](O)c1ccc([N+](=O)[O-])cc1)C(Cl)Cl", 10.1),
    ("Oc1ncnc2[nH]ncc12", 10.1),
    ("CN1C(=O)OC(C)(C)C1=O", 9),
]

Turning now to a further record.
Input: What value of LIVER has been reported for the following compound? CCc1oc2ccccc2c1C(=O)c1cc(I)c(O)c(I)c1
Output: 9.9

* * *

# TBIL per entry
Species: Rattus norvegicus
ASSAY_PROTOCOL: Open TG-GATES - Regimen: Daily Repeat
Format: toxicity, organism-based, Sprague-Dawley
Set-up: regimen Daily Repeat, gender Male, age 6 weeks
MEASUREMENT_PARAMETERS: in vivo, po, 300 mg/kg, […], tissue Plasma, route gavage, dose level Middle, time 7 day
Numeric answer only, unit mg/dL assumed.

# COMPOUND, TBIL (mg/dL)
measured = [
    ("O=C(O)c1cccnc1 [NIACIN]", 0),
    ("CCN1CCCC1CNC(=O)c1cc(S(N)(=O)=O)ccc1OC (centres undefined) [SULPIRIDE]", 0.052),
    ("O=C(N[C@H](CO)[C@H](O)c1ccc([N+](=O)[O-])cc1)C(Cl)Cl [CHLORAMPHENICOL]", 0.054),
]

Turning now to a further record.
Input: What value of TBIL has been reported for the following compound? CC(C)(S)[C@@H](N)C(=O)O [PENICILLAMINE]
Output: 0.034

* * *

# BUN per entry
Organism: Rattus norvegicus
ASSAY_PROTOCOL: Open TG-GATES - Regimen: Single
Type: toxicity, organism-based, Sprague-Dawley
Design: regimen Single, gender Male, age 6 weeks
MEASUREMENT_PARAMETERS: in vivo, po, 0 mg/kg, 24 h, tissue Plasma, route gavage, dose level Control
Numeric answer only, unit mg/dL assumed.

# COMPOUND, VALUE_OBSERVED
measured = [
    ("CCc1oc2ccccc2c1C(=O)c1cc(I)c(O)c(I)c1", 17.6),
]

Input: What value of BUN has been reported for the following compound? Oc1ncnc2[nH]ncc12
Output: 18

Input: Repeat for the following compound: CCSCC[C@H](N)C(=O)O
Output: 14.4

Input: Repeat for the following compound: O=C(N[C@H](CO)[C@H](O)c1ccc([N+](=O)[O-])cc1)C(Cl)Cl
Output: 15.4

* * *

# RBC per entry
Species: Rattus norvegicus
ASSAY_PROTOCOL: Open TG-GATES - Regimen: Single
Format: toxicity, organism-based, Sprague-Dawley
Set-up: regimen Single, gender Male, age 6 weeks
MEASUREMENT_PARAMETERS: in vivo, po, 0 mg/kg, 24 h, tissue Blood, route gavage, dose level Control
Numeric answer only, unit x10_4/ul assumed.

Below are worked cases with known answers.
# MOLECULE, RBC [x10_4/ul]
records = [
    ("CC(C)(S)[C@@H](N)C(=O)O", 626.4),
    ("CC(C)C(=O)Nc1ccc([N+](=O)[O-])c(C(F)(F)F)c1 [FLUTAMIDE]", 615.6),
    ("CCN1CCCC1CNC(=O)c1cc(S(N)(=O)=O)ccc1OC (stereo not given) [SULPIRIDE]", 642.4),
    ("C[C@]12CCC(=O)C=C1CC[C@@H]1[C@@H]2CC[C@@]2(C)[C@H]1CC[C@]2(C)O", 607.4),
]

Turning now to a further record.
Input: What value of RBC has been reported for the following molecule? CCc1oc2ccccc2c1C(=O)c1cc(I)c(O)c(I)c1
Output: 604.6

Reference source: ChEMBL document CHEMBL3885861
